assayed.system: hDGAT2 (Homo sapiens (Human), UniProt Q96PD7)
Sequence (Q96PD7 whole entry): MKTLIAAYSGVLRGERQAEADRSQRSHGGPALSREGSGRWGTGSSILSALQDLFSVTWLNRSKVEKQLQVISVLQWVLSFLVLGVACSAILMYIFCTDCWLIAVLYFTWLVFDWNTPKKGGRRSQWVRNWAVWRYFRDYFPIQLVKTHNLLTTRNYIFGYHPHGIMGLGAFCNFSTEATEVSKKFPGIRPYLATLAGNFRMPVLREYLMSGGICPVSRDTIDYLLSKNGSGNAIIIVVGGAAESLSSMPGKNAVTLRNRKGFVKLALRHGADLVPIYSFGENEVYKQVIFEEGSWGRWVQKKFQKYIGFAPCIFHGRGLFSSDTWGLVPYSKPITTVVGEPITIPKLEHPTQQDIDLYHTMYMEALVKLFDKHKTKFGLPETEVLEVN
assay.method.text: DGAT2 Enzymatic Activity Assay
Assay type: biochemical
experimental.context: hDGAT2 Sf-9 membrane prep; 25 μM diolein, 10 μM oleoyl-CoA; triolein product by LC/MS/MS; read-out: IC50 values for inhibition of DGAT2
Procedure: Sf-9 insect cells were maintained in Grace's insect cell culture medium with 10% heated-inactivated fetal bovine serum, 1% Pluronic F-68 and 0.14 μg/ml Kanamycine sulfate in Erlenmeyer flasks at 28° C. in a shaker incubator. After infection with untagged hDGAT2 baculovirus at multiplicity of infection (MOI) 0.1 for 48 hours, cells were harvested. […] The protein concentration was determined with the BCA Protein Assay kit (Pierce Biotechnology Inc., Rockford, Ill.). […]
pIC50: −log10 of the molar value.
# pIC50 >= 7 gives label 1, anything below gives label 0

Recorded results for 5 compounds are shown here.
>>> label_class("Cc1noc([C@@H]2C[C@H]2C(=O)NCc2ccc(-c3cccc(OC(F)(F)F)c3)c3c2CN(C(=O)NC(C)(C)C)CC3)n1 (relative stereo) [Example 12]")
"label 1"
>>> label_class("COc1cccc(-c2ccc(CNC(=O)[C@@H]3C[C@H]3c3ccccc3)c3c2CCN(C(=O)c2cc(F)cc(F)c2)C3)c1 (relative stereo) [Example 111]")
"label 0"
>>> label_class("CC(=O)Nc1cccc(-c2ccc(CNC(=O)[C@@H]3C[C@H]3c3ccccc3)c3c2CCN(C(=O)NC(C)(C)C)C3)c1 (relative stereo) [Example 36]")
"label 0"
>>> label_class("CCn1ccnc1CN1CCc2c(-c3cccc(OC(F)(F)F)c3)ccc(CNC(=O)C3C[C@H]3c3nc(C)no3)c2C1 (stereo partly shown) [Example 102]")
"label 0"
>>> label_class("Cc1noc(C2CC2C(=O)NCc2ccc(-c3cccc(OC(F)(F)F)c3)c3c2CN(C(=O)NC(C)(C)C)CC3)n1 (stereo not shown) [Example 1]")
"label 1"

Hello, I need to know if COC(=O)c1cccc(-c2ccc(CNC(=O)C3CC3c3ccccc3)c3c2CCN(Cc2ccccn2)C3)c1 (stereo not shown) [Example 94] has measured pIC50 not below 7. Thanks!
label 0

Is it the case that COc1cccc(-c2ccc(CNC(=O)[C@@H]3C[C@H]3c3ccccc3)c3c2CCN(C(=O)NCCCC(=O)O)C3)c1 (relative stereo) [Example 64] has pIC50 reaching or exceeding 7?
label 0

hey, is pIC50 for this one >= 7? Cc1noc(C2CC2C(=O)NCc2ccc(-c3cccc(OC(F)(F)F)c3)c3c2CN(CC(=O)N[C@H](C)c2ccccc2)CC3)n1 (stereo partly shown) [Example 88]
label 0

Identify whether the reported pIC50 of the following compound is 7 or greater: Cc1noc([C@@H]2C[C@H]2C(=O)NCc2ccc(-c3cccc(OC(F)(F)F)c3)c3c2CN(CC(=O)N2CCOCC2(C)C)CC3)n1 (relative stereo) [Example 91]
label 0

Confirm if pIC50 reported for the compound CCOC(=O)c1cncc(-c2ccc(CNC(=O)[C@@H]3C[C@H]3c3ccccc3)c3c2CCN(C(=O)NC(C)(C)C)C3)c1 (relative stereo) [Example 46] is 7 or above.
label 1

// inclusive: pIC50 at least 7? input: COC(=O)c1cccc(-c2ccc(CNC(=O)C3CC3c3ccccc3)c3c2CCN(C(=O)CC2CC2)C3)c1 (stereo not shown) [Example 125]
label 0

Please indicate if the recorded pIC50 for COC(=O)c1cccc(-c2ccc(CNC(=O)C3CC34CCCCC4)c3c2CCN(C(=O)NC(C)(C)C)C3)c1 (stereo not shown) [Example 17] meets or exceeds 7.
label 1
